# Test Details: THP-1 cell cytotoxicity, dose response, cytotoxicity control for Salmonella PhoP regulon inhibitors, S. typhimurium screen hits (AID 2253)
# Stated Conditions: THP-1 viability, CellTiter-Glo luminescence, 72 h; series mostly up to 50 µM
Screen size: about 2,200 compounds; about 1,300 (59%) were called active. So high a share suggests a set chosen from earlier hits. These entries were drawn from the full list. Results with a measured potency or affinity are listed apart.
Metric Name: outcome

Below: 10 compounds and their reported outcome.
>  <Compound>
Cc1cccc(C=Nc2ccc3c(c2)oc2ccccc23)c1O

>  <Metric Name>
outcome

>  <Test Result>
inactive

$$$$
>  <Compound>
COc1ccc(N2CCN(C(=O)Nc3ccc(S(=O)(=O)N(C)C)cc3)CC2)cc1

>  <Metric Name>
outcome

>  <Test Result>
inactive

$$$$
>  <Compound>
CCCCN(C)C(=O)c1cn(C)c2ccc(S(=O)(=O)N(C)C)cc2c1=O

>  <Metric Name>
outcome

>  <Test Result>
inactive

$$$$
>  <Compound>
CCOC(=O)CC(=O)CSc1nc2c(c(C)c1C#N)CCC2

>  <Metric Name>
outcome

>  <Test Result>
inactive

$$$$
>  <Compound>
CCCc1cc(C(=O)Cc2ccc(C(=O)OCC)o2)c(O)cc1O

>  <Metric Name>
outcome

>  <Test Result>
inactive

$$$$
>  <Compound>
Cc1ccc2nc(-c3ccc(Br)o3)oc(=O)c2c1

>  <Metric Name>
outcome

>  <Test Result>
inactive

$$$$
>  <Compound>
COCCn1cc(C(=O)N2CCC(C)CC2)c2c3ccccc3n(C)c2c1=O

>  <Metric Name>
outcome

>  <Test Result>
inactive

$$$$
>  <Compound>
O=C(Nc1cnn(Cc2ccc(F)cc2)c1)c1cnccn1

>  <Metric Name>
outcome

>  <Test Result>
inactive

$$$$
>  <Compound>
COc1ccc(CCN2CC3=C(C2=O)C(c2ccccc2)NC(=O)N3C)cc1OC (stereo unspecified)

>  <Metric Name>
outcome

>  <Test Result>
inactive

$$$$
>  <Compound>
O=C(NC1CCCCC1)n1c(=O)oc2ccc(Cl)cc21

>  <Metric Name>
outcome

>  <Test Result>
inactive

$$$$

Shift focus to the following entry.
Exercise: For the compound O=C(NCCc1cn2ccccc2n1)c1ccccc1F , what outcome is on record?
Solution: inactive

---

# Test Details: THP-1 cell cytotoxicity, dose response, cytotoxicity control for Salmonella PhoP regulon inhibitors, S. typhimurium screen hits (AID 2253)
# Stated Conditions: THP-1 viability, CellTiter-Glo luminescence, 72 h; series mostly up to 50 µM
Among all 2,200 compounds or so, about 1,300 (59%) were called active. So high a share suggests a set chosen from earlier hits. Only a sample is shown. Potency and affinity values are given separately.
Metric Name: outcome

>  <Compound>
Cc1ccc(CNc2oc(-c3cccs3)nc2C#N)cc1

>  <outcome>
inactive

$$$$
>  <Compound>
Cc1cc([N+](=O)[O-])ccc1NC(=O)Cc1ccc(F)cc1

>  <outcome>
inactive

$$$$
>  <Compound>
Cc1scc(C(=O)O)c1-c1c(C(=O)O)csc1C

>  <outcome>
inactive

$$$$
>  <Compound>
CCN1C(=O)N/C(=C/c2ccc(Sc3ccc(C)cc3)o2)C1=O

>  <outcome>
inactive

$$$$
>  <Compound>
CC(C)n1cc(C(=O)N2CCCC(N3CCN(c4ccc(F)cc4)CC3)C2)cn1 (configuration not stated)

>  <outcome>
inactive

$$$$
>  <Compound>
Cc1nc2ccccn2c1C(=O)N/N=C/c1ccccc1[N+](=O)[O-]

>  <outcome>
inactive

$$$$
>  <Compound>
CCOC(=O)C1CCCN(C(=O)c2sc3nc(C)nc(N4CCOCC4)c3c2C)C1 (configuration not stated)

>  <outcome>
inactive

$$$$
>  <Compound>
O=C(Nc1cnc2ccccc2c1)N1CCOCC1

>  <outcome>
inactive

$$$$
>  <Compound>
CN(C(=O)/C=C/c1ccccc1)C1CCS(=O)(=O)C1 (configuration not stated)

>  <outcome>
inactive

$$$$
>  <Compound>
CN1CCN(c2cc3c(cc2F)c(=O)c(C(=O)O)cn3CCF)CC1

>  <outcome>
inactive

$$$$

Exercise: What value of outcome has been recorded for this entry: O=C(N/N=C/c1cccn1-c1ccc([N+](=O)[O-])cc1)C(O)c1ccccc1 (configuration not stated)
Solution: inactive

Exercise: Repeat for the following compound: Cc1ccc(C2NNC(=O)C2NC(=O)c2ccccc2)cc1 (configuration not stated)
Solution: inactive

Exercise: Param item: FC(F)(F)c1cccc(NC(=S)NCCN2CCOCC2)c1
Solution: inactive

Exercise: Also CCn1cc(C(=O)O)c(=O)c2cc(F)c(N3CCN(C(=S)NC(=O)c4cccc(C)c4)CC3)cc21 , if possible.
Solution: inactive

Exercise: Moving on to Cc1ccc(C(=O)c2ccccc2C(=O)O)c(O)c1
Solution: inactive

Exercise: Now consider CCc1c(C)c2cc(Cl)c(O)c(CN(C)C)c2oc1=O .
Solution: inactive

---

# Test Details: THP-1 cell cytotoxicity, dose response, cytotoxicity control for Salmonella PhoP regulon inhibitors, S. typhimurium screen hits (AID 2253)
# Stated Conditions: THP-1 viability, CellTiter-Glo luminescence, 72 h; series mostly up to 50 µM
About 1,300 (59%) of roughly 2,200 compounds were called active. The set was probably picked from earlier hits. The list is a sample of the results. Entries with a potency or affinity are not part of this list.
Metric Name: outcome

Worked cases, answers included:
>  <Compound>
CCSc1cc(N2CCCC2)nc(-c2cccc(C)c2)n1

>  <Test Result>
inactive

$$$$
>  <Compound>
O=C1CSC(=S)N1c1ccc(F)cc1

>  <Test Result>
inactive

$$$$
>  <Compound>
O=C1CSc2ccccc2N1Cc1ccc(F)cc1

>  <Test Result>
inactive

$$$$
>  <Compound>
CCCn1c(/N=C/c2ccc3c(c2)OCO3)nc2ccccc21

>  <Test Result>
inactive

$$$$
>  <Compound>
C/C(=N\n1nnnc1Nc1ccccc1)c1ccc(N)cc1

>  <Test Result>
inactive

$$$$

Exercise: What outcome value was documented for this compound, c1ccn2c(CNc3ncnc4sccc34)nnc2c1 ?
Solution: inactive

Exercise: What do we get for O=C(O)C1CCCN1S(=O)(=O)c1ccc2[nH]c(=O)c(=O)[nH]c2c1 (stereo not given) ?
Solution: inactive

Exercise: Another compound: COc1cc(C2C(C(=O)c3ccc(C)o3)=C(O)C(=O)N2CCc2ccccc2)ccc1O (stereo not given)
Solution: inactive

Exercise: What about this compound? C/C(=N/NC(=O)Cc1cccn1C)c1ccccc1
Solution: inactive

Exercise: And then CCOC(=O)C1=C(C)N(CCO)C(=O)NC1c1cccc(O)c1 (stereo not given) , what is it?
Solution: inactive

Exercise: Same question for c1ccc2[nH]c(CSc3nccs3)nc2c1 please.
Solution: inactive

Exercise: Try this compound too: NC(=O)c1oc2ccccc2c1NC(=O)CN1CCCCC1
Solution: inactive

Exercise: Same lookup for COc1ccc(-c2nnn(CC(=O)N(Cc3ccco3)C(C(=O)NCC3CCCO3)c3ccco3)n2)cc1 (stereo not given) , please.
Solution: inactive

---

# Test Details: THP-1 cell cytotoxicity, dose response, cytotoxicity control for Salmonella PhoP regulon inhibitors, S. typhimurium screen hits (AID 2253)
# Stated Conditions: THP-1 viability, CellTiter-Glo luminescence, 72 h; series mostly up to 50 µM
The campaign covered roughly 2,200 compounds. About 1,300 (59%) were called active. The set was probably picked from earlier hits. The list is a sample of the results. Entries with a potency or affinity are not part of this list.
Metric Name: outcome

// worked examples, outcome included
>  <Mol Smiles>
O=c1[nH]c2ccccc2n2c(=S)[nH]nc12

>  <Metric Name>
outcome

>  <Test Result>
inactive

$$$$
>  <Mol Smiles>
Cc1ccc(OCC(=O)N2CCN(S(=O)(=O)c3ccccc3)CC2)c([N+](=O)[O-])n1

>  <Metric Name>
outcome

>  <Test Result>
inactive

$$$$
>  <Mol Smiles>
CCc1ccc(NC(=O)c2noc3c2CCc2ccccc2-3)cc1

>  <Metric Name>
outcome

>  <Test Result>
inactive

$$$$
>  <Mol Smiles>
COc1cc(C=O)ccc1OCCCOc1ccccc1[N+](=O)[O-]

>  <Metric Name>
outcome

>  <Test Result>
inactive

$$$$
>  <Mol Smiles>
O=C1c2ccccc2C(=O)N1Cc1nc(-c2ccccn2)no1

>  <Metric Name>
outcome

>  <Test Result>
inactive

$$$$
>  <Mol Smiles>
CCN(CC(=O)Nc1ccc(N2CCOCC2)cc1)Cc1nc2ccccc2c(=O)[nH]1

>  <Metric Name>
outcome

>  <Test Result>
inactive

$$$$
>  <Mol Smiles>
CCOc1ccc(CCNC(=O)c2cc3sc(Cl)cc3n2C)cc1OCC

>  <Metric Name>
outcome

>  <Test Result>
inactive

$$$$
>  <Mol Smiles>
COC(=O)c1cc(C#N)c(Oc2cccc(C)c2C)nc1C

>  <Metric Name>
outcome

>  <Test Result>
inactive

$$$$

Exercise: Entry O=C(O)Cn1cc(C(=O)c2ccco2)c2ccccc21 has what outcome?
Solution: inactive

Exercise: Try this molecule too: CCn1cc(C(=O)O)c(=O)c2cc(OC)ccc21
Solution: inactive

Exercise: Now the molecule Cn1c(-c2ccc(N)cc2)nc2ccccc21
Solution: inactive

Exercise: # iterate: CCOc1ccc(/C=N/O)cc1
Solution: inactive
